System: rhIFNγ stimulated STAT-3 phosphorylation in the A549 human epithelial cell line
Assay: A549 Cell Assay: Inhibition of pSTAT3
Assay type: cell-based
Conditions: Homo sapiens; A549 cells
Counter-ions that a name gives are not always drawn.
recorded.endpoint: IC50 (nM)
Answers are plain numbers, in nM.

Record excerpt, results attached:
- CCN(c1ncc(F)cc1CNc1nc(-c2cc(F)c(O)cc2CC(F)(F)F)cc2[nH]nc(C(N)=O)c12)S(C)(=O)=O: 30.7
- CCS(=O)(=O)N(C)c1ccccc1CNc1nc(-c2cc(F)c(O)cc2CC(F)(F)F)cc2[nH]nc(C(N)=O)c12: 12.9

// batch mode: one IC50 value per listed entry
1. CCc1cc(O)c(F)cc1-c1cc2[nH]ncc2c(NCc2cc(Cl)ccc2N(C)S(C)(=O)=O)n1 [Example 133, hydrochloride]
2. CCc1cc(O)c(F)cc1-c1nc(NCc2ccccc2N(C)S(=O)(=O)c2ccccc2)c2c(C(N)=O)n[nH]c2n1
3. CNC(=O)c1n[nH]c2cc(-c3cc(F)c(O)cc3CC(F)(F)F)nc(NCc3ccccc3N(C)S(=O)(=O)c3cccnc3)c12
4. CNC(=O)c1n[nH]c2nc(-c3cc(F)c(O)cc3CC(F)(F)F)nc(NCc3cc(O)ccc3N(C)S(=O)(=O)c3ccccc3)c12
5. CCc1cc(O)c(F)cc1-c1cc2[nH]nc(C(N)=O)c2c(NCc2ccc(O)cc2N(C)S(C)(=O)=O)n1
6. CCc1cc(O)c(F)cc1-c1cc2[nH]nc(-c3nnc(C)[nH]3)c2c(NCc2ccccc2N(C)S(C)(=O)=O)n1
7. CNC(=O)c1n[nH]c2cc(-c3cc(F)c(O)cc3CC(F)(F)F)nc(NCc3ccccc3N(C)S(=O)(=O)CCOC)c12

## Output
1. 10.1
2. 59.9
3. 43.9
4. 2520
5. 164
6. 567
7. 34.4

Hey, just so you know, these numbers are from patent US10022376B2.
